Cited source: paper PMC4506529

- Assayed target: human C-terminal DNMT3A (a.a. 623-908) (Homo sapiens, UniProt Q9Y6K1)
- Sequence (Q9Y6K1 627-912): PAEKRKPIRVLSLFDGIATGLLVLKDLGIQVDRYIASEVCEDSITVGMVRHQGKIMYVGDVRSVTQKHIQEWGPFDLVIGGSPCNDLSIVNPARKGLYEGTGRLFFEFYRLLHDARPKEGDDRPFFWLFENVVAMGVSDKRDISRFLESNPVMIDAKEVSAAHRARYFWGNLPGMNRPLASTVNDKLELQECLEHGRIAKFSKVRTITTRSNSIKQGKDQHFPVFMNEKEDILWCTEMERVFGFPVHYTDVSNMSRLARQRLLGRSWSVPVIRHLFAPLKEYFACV
- Method summary: DNMT3A restriction-based fluorescence enzyme inhibition assay
- Assay type: biochemical
- Measurement context: read-out: Inhibition [%] of DNMT3A catalytic activity
Parameter: inhibition at 10 µM (%)

Some entries whose results are on file:
- Line notation: "Cc1cc(Nc2ccc(NC(=O)c3ccc(Nc4ccncc4)cc3)cc2)nc(N)n1"
  Value reported: 32
- Line notation: "O=C(Nc1ccc(Nc2ccnc3ccccc23)cc1)c1ccc(Nc2ccnc3ccccc23)cc1"
  Value reported: 39
- Line notation: "O=C(Nc1ccc(Nc2ccncc2)cc1)c1ccc(Nc2ccncc2)cc1"
  Value reported: 18
- Line notation: "COc1nc(Nc2ccc(C(=O)Nc3ccc(Nc4cc(C)nc(N)n4)cc3)cc2)nc(OC)n1"
  Value reported: 36

(P) Cc1cc(Nc2ccc(NC(=O)c3ccc(Nc4ncccn4)cc3)cc2)nc(N)n1
(Q) O=C(Nc1ccc(Nc2ccnc3ccccc23)cc1)c1ccc(Nc2ccncc2)cc1
(R) Cc1cc(Nc2ccc(NC(=O)c3ccc(Nc4ncnc5ccccc45)cc3)cc2)nc(N)n1
(S) O=C(Nc1ccc(Nc2c3ccccc3nc3ccccc23)cc1)c1ccc(Nc2c3ccccc3nc3ccccc23)cc1
Ask: Arrange these 4 molecules in increasing order of inhibition at 10 µM. Please, when replying, give the labels in the order that was requested.
Reply: P, R, S, Q

###

- Assayed target: human C-terminal DNMT3A (a.a. 623-908) (Homo sapiens, UniProt Q9Y6K1)
- Method summary: DNMT3A restriction-based fluorescence enzyme inhibition assay
- Type: biochemical
- Measurement context: read-out: Inhibition [%] of DNMT3A catalytic activity
Parameter: inhibition at 32 µM (%)

(a) O=C(Nc1ccc(Nc2ccnc3ccccc23)cc1)c1ccc(Nc2ccncc2)cc1
(b) Cc1cc(Nc2ccc(NC(=O)c3ccc(Nc4ncnc5cc(F)ccc45)cc3)cc2)nc(N)n1
Ask: Lower value of inhibition at 32 µM belongs to which: a or b ? Your answer should be the label attached to the chosen record.
Reply: b
(b: 6%, a: 75%)

(1) Nc1cc(Nc2ccc(C(=O)Nc3ccc(Nc4ccnc5ccccc45)cc3)cc2)nc(N)n1
(2) Cc1cc(Nc2ccc(NC(=O)c3ccc(Nc4ccncc4)cc3)cc2)nc(N)n1
Ask: Lower value of inhibition at 32 µM belongs to which: 1 or 2 ? Your answer should be the label attached to the chosen record.
Reply: 1
(1: 53%, 2: 91%)

(a) Cc1cc(Nc2ccc(C(=O)Nc3ccc(Nc4ccnc5ccccc45)cc3)cc2)nc(N)n1
(b) O=C(Nc1ccc(Nc2ccnc3ccccc23)cc1)c1ccc(Nc2ccnc3ccccc23)cc1
Ask: Lower value of inhibition at 32 µM belongs to which: a or b ? Your answer should be the label attached to the chosen record.
Reply: b
